Target: SLC41A1 (human)
Sequence (chain, as listed by the source limits assumed): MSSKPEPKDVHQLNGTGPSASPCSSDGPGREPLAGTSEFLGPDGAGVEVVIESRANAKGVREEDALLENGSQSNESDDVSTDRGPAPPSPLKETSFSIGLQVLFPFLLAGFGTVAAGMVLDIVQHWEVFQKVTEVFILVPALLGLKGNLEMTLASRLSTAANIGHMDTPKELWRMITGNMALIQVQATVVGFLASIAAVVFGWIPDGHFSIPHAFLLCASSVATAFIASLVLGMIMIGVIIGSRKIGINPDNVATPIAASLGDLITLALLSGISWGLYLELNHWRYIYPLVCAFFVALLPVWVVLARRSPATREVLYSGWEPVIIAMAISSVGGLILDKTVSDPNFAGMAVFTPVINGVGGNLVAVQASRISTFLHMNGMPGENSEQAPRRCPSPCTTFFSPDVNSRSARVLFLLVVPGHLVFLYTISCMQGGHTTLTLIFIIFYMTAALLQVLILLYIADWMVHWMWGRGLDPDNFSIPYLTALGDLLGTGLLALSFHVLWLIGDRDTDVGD
Assay: split-ubiquitin method screen (DUALmembrane SU-YTH) for SLC41A1 complex-forming partners
PROPERTY_NAME: occurrence (clones)

BINDER	OBSERVED_RESULT
Translocon-associated protein subunit gamma (other) MAPKGSSKQQSEEDLLLQDFSRNLSAKSSALFFGNAFIVSAIPIWLYWRIWHMDLIQSAVLYSVMTLVSTYLVAFAYKNVKFVLKHKVAQKREDAVSKEVTRKLSEADNRKMSRKEKDERILWKKNEVADYEATTFSIFYNNTLFLVVVIVASFFILKNFNPTVNYILSISASSGLIALLSTGSK	4
Uncharacterized protein C10orf35 (other) MVRILANGEIVQDDDPRVRTTTQPPRGSIPRQSFFNRGHGAPPGGPGPRQQQAGARLGAAQSPFNDLNRQLVNMGFPQWHLGNHAVEPVTSILLLFLLMMLGVRGLLLVGLVYLVSHLSQR	2
Kunitz-type protease inhibitor 2 (other) ADRERSIHDFCLVSKVVGRCRASMPRWWYNVTDGSCQLFVYGGCDGNSNNYLTKEECLKKCATVTENATGDLATSRNAADSSVPSAPRRQDSEDHSSDMFNYEEYCTANAVTGPCRASFPRWYFDVERNSCNNFIYGGCRGNKNSYRSEEACMLRCFRQQENPPLPLGSKVVVLAGLFVMVLILFLGASMVYLIRVARRNQERALRTVWSSGDDKEQLVKNTYVL	2
Probable ergosterol biosynthetic protein 28 (other) MSRFLNVLRSWLVMVSIIAMGNTLQSFRDHTFLYEKLYTGKPNLVNGLQARTFGIWTLLSSVIRCLCAIDIHNKTLYHITLWTFLLALGHFLSELFVYGTAAPTIGVLAPLMVASFSILGMLVGLRYLEVEPVSRQKKRN	2
3-beta-hydroxysteroid-Delta(8), Delta(7)-isomerase (Rattus norvegicus) (enzyme) MTTNMLPLHPYWPRHLRLDNFVPNDLPTWHILVGLFSFSGVLIVITWLLSSRVSVVPLGTGRRLALCWFAVCTFIHLVIEGWFSFYHEILLEDQAFLSQLWKEYSKGDSRYILSDGFIVCMESVTACLWGPLSLWVVIAFLRHQPFRFVLQLVVSVGQIYGDVLYFLTELRDGFQHGELGHPLYFWFYFVIMNAIWLVIPGILVFDAIKHLTNAQSMLDNKVMKIKSKHN	1
ATP synthase subunit a (Tachyglossus aculeatus aculeatus) (other) MNENLFASFITPTILGISILPLIMIFPCLLFSAPNRWMPNRLVALQLWLVRMVTKQMMSMHNKQGRMWTLMLITLIMFIASTNLLGLLPYTFTPTTQLSMNMGMAVPLWLGTVLMGFRNKPKSSLAHFLPQGTPTPLIPMLIIIETISLFIQPVALAVRLTANITAGHLLIHLIGSATLALSSISLTVSTITFTILFLLTILEIAVALIQAYVFTLLVSLYLHDNT	1
Signal peptidase complex subunit 1 (other) MARGGDTGCTGPSETSASGAVAIAFPGLEGPPADAQYQTLALTVPKSWSPSPRSLPPALSCPPPQPAMLEHLSSLPTQMDYKGQKLAEQMFQGIILFSAIVGFIYGYVAEQFGWTVYIVMAGFAFSCLLTLPPWPIYRRHPLKWLPVQESSTDDKKPGERKIKRHAKNN	2
